- Experiment description: Urinary excretion study in rats after oral NS, SF or CNS (LC–MS/MS)
- Assay type: in vivo
- Condition summary: rat urine, oral NS 60 mg/kg, 24 h
Measured quantity: Accumulative excretion percentage (%)
Return type: number; implicit unit %.

# Compound, Result number
data = [
    ("CC(C)=CCC[C@](C)(O[C@@H]1O[C@H](CO)[C@@H](O)[C@H](O)[C@H]1O)[C@H]1CC[C@]2(C)[C@@H]1[C@H](O)C[C@@H]1[C@@]3(C)CC[C@H](O[C@@H]4O[C@H](CO)[C@@H](O)[C@H](O)[C@H]4O[C@@H]4O[C@H](CO)[C@@H](O)[C@H](O)[C@H]4O)C(C)(C)[C@@H]3CC[C@]12C [ginsenoside Rd]", 0.032),
]

Note Accumulative excretion percentage for the compound shown: CC(C)=CCC[C@](C)(O[C@@H]1O[C@H](CO)[C@@H](O)[C@H](O)[C@H]1O)[C@H]1CC[C@]2(C)[C@@H]1[C@H](O)C[C@@H]1[C@@]3(C)CC[C@H](O)C(C)(C)[C@@H]3[C@@H](O[C@@H]3O[C@H](CO)[C@@H](O)[C@H](O)[C@H]3O)C[C@]12C [ginsenoside Rg1] 0.451

Note Accumulative excretion percentage for the compound shown: CC(C)=CCC[C@](C)(O[C@@H]1O[C@H](CO)[C@@H](O)[C@H](O)[C@H]1O)[C@H]1CC[C@]2(C)[C@@H]1[C@H](O)C[C@@H]1[C@@]3(C)CC[C@H](O)C(C)(C)[C@@H]3[C@@H](O[C@@H]3O[C@H](CO)[C@@H](O)[C@H](O)[C@H]3O[C@@H]3O[C@@H](C)[C@H](O)[C@@H](O)[C@H]3O)C[C@]12C [ginsenoside Re] 0.149

----------
Measured Excretion amount by item
- Experiment description: Urinary excretion study in rats after oral NS, SF or CNS (LC–MS/MS)
- Format: in vivo
- Condition summary: rat urine, oral CNS 110 mg/kg, 4 h
Field: value (include unit after the number)

Look over these answered cases.
# Compound, Excretion amount
rows = [
    ("CC(C)=CCC[C@](C)(O[C@@H]1O[C@H](CO)[C@@H](O)[C@H](O)[C@H]1O)[C@H]1CC[C@]2(C)[C@@H]1[C@H](O)C[C@@H]1[C@@]3(C)CC[C@H](O)C(C)(C)[C@@H]3[C@@H](O[C@@H]3O[C@H](CO)[C@@H](O)[C@H](O)[C@H]3O[C@@H]3O[C@@H](C)[C@H](O)[C@@H](O)[C@H]3O)C[C@]12C [ginsenoside Re]", "0.100 ± 0.090 µg"),
    ("CC(C)=CCC[C@](C)(O[C@@H]1O[C@H](CO)[C@@H](O)[C@H](O)[C@H]1O)[C@H]1CC[C@]2(C)[C@@H]1[C@H](O)C[C@@H]1[C@@]3(C)CC[C@H](O[C@@H]4O[C@H](CO)[C@@H](O)[C@H](O)[C@H]4O[C@@H]4O[C@H](CO)[C@@H](O)[C@H](O)[C@H]4O)C(C)(C)[C@@H]3CC[C@]12C [ginsenoside Rd]", "0.005 ± 0.007 µg"),
    ("CC(C)=CCC[C@](C)(O[C@@H]1O[C@H](CO[C@@H]2O[C@H](CO)[C@@H](O)[C@H](O)[C@H]2O)[C@@H](O)[C@H](O)[C@H]1O)[C@H]1CC[C@]2(C)[C@@H]1[C@H](O)C[C@@H]1[C@@]3(C)CC[C@H](O[C@@H]4O[C@H](CO)[C@@H](O)[C@H](O)[C@H]4O[C@@H]4O[C@H](CO)[C@@H](O)[C@H](O)[C@H]4O)C(C)(C)[C@@H]3CC[C@]12C [ginsenoside Rb1]", "0.044 ± 0.050 µg"),
]

Now let's try a different one.
Note Excretion amount for the compound shown: CC(C)=CCC[C@](C)(O[C@@H]1O[C@H](CO)[C@@H](O)[C@H](O)[C@H]1O)[C@H]1CC[C@]2(C)[C@@H]1[C@H](O)C[C@@H]1[C@@]3(C)CC[C@H](O)C(C)(C)[C@@H]3[C@@H](O[C@@H]3O[C@H](CO)[C@@H](O)[C@H](O)[C@H]3O)C[C@]12C [ginsenoside Rg1] 2.002 ± 1.609 µg
